Every entry's value here was drawn from patent US5866684A.

# measured.target: HCV proteinase (Hepatitis C virus genotype 1b, UniProt P26662)
# Construct: Regions encompassing the NS3 proteinase domain (amino acids 1007-1219)
# Sequence (P26662 1007-1219): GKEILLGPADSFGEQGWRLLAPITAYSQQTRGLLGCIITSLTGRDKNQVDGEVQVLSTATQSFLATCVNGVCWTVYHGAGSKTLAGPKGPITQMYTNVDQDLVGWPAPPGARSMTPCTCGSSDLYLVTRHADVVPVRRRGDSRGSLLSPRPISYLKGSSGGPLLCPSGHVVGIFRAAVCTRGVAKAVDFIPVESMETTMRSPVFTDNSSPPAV
# assay.notes: HCV proteinase inhibition: cleavage of quenched fluorescence substrate NS4A/B.F peptide by enzyme MBP-NS3"Gly12-NS4A
# run.parameters: enzyme MBP-NS3"Gly12-NS4A 1 μg in 200 μl, pH 8.5, 15 minutes preincubation, NS4A/B.F peptide 10 μM, read after a further 10 minutes
Numbered stars: 1 amine (or outer) side, 2 acyl side, 3 side chain; on linkers, the order of the positions; unused ones are H or OH. Square brackets hold non-standard residues; d marks the D form. Peptide text beside a SMILES is read from it. X1 = CC(F)(F)C[C@H](N[*:1])C(=O)[*:2]; Phe(2-Me) = Cc1ccccc1C[C@H](N)C(=O)O; Suc = O=C(CCC(=O)[*:2])[*:1]; Tle = CC(C)(C)[C@H](N)C(=O)O
Threshold 0.06 µM: IC50 strictly smaller gives t, otherwise f.

- C=CCC(NC(=O)[C@H](CC(C)C)NC(=O)[C@@H](NC(=O)[C@H](Cc1ccccc1C)NC(=O)[C@H](CCC(=O)O)NC(=O)[C@H](CC(=O)O)NC(=O)CCC(=O)O)C(C)(C)C)B(O)O (mixture of isomers) [D]: t
- C=CCC(C=O)NC(=O)[C@H](CC(C)C)NC(=O)[C@@H](NC(=O)[C@H](Cc1ccccc1C)NC(=O)[C@H](CCC(=O)O)NC(=O)[C@H](CC(=O)O)NC(=O)CCC(=O)O)C(C)(C)C (mixture of isomers) [A]: f
- Cc1ccccc1C[C@H](NC(=O)[C@H](CCC(=O)O)NC(=O)[C@H](CC(=O)O)NC(=O)CCC(=O)O)C(=O)N[C@H](C(=O)N[C@@H](CC(C)C)C(=O)N[C@H](C=O)CC(C)(F)F)C(C)(C)C [B] (Suc-DE[Phe(2-Me)][Tle]L[X1]-aldehyde): f
- CCC(NC(=O)[C@H](CC(C)C)NC(=O)[C@@H](NC(=O)[C@H](Cc1ccccc1C)NC(=O)[C@H](CCC(=O)O)NC(=O)[C@H](CC(=O)O)NC(=O)CCC(=O)O)C(C)(C)C)B(O)O (mixture of isomers) [E]: t
- CCCC(NC(=O)[C@H](CC(C)C)NC(=O)[C@@H](NC(=O)[C@H](Cc1ccccc1C)NC(=O)[C@H](CCC(=O)O)NC(=O)[C@H](CC(=O)O)NC(=O)CCC(=O)O)C(C)(C)C)B(O)O (mixture of isomers) [F]: f
- Cc1ccccc1C[C@H](NC(=O)[C@H](CCC(=O)O)NC(=O)[C@H](CC(=O)O)NC(=O)CCC(=O)O)C(=O)N[C@H](C(=O)N[C@@H](CC(C)C)C(=O)NC(C=O)CC(F)(F)F)C(C)(C)C (mixture of isomers) [C]: f
